- target_of_assay: BSA (UniProt P02769)
- Sequence (P02769 25-607 limits assumed): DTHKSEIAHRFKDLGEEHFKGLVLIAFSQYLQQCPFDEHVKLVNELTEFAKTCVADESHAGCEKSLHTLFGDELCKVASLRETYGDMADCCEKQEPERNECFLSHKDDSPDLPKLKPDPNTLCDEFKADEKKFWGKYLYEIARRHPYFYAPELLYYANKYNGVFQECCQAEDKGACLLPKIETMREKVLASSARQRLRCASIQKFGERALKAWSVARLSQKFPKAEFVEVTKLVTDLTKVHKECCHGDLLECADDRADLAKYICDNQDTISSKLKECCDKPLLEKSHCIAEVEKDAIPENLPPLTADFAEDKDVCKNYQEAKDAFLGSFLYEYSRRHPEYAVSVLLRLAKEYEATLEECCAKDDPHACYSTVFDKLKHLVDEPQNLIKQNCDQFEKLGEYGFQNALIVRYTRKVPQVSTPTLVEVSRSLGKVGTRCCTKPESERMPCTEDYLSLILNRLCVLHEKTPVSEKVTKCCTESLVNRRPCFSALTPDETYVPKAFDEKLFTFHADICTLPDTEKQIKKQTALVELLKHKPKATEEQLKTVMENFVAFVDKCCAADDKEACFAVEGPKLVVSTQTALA
- assay_summary: scFv ELISA

>  <binder>
PcOxP_DB01_E07 (scFv, V domains shown, scFv in periplasmic extract) VH: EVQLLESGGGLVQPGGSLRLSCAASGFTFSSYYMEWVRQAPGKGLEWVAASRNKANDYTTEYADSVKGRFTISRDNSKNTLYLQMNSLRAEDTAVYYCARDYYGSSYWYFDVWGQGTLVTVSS VL: DIVMTQSPDSLAVSLGERATINCTASESLYSSKHKVDYLAWYQQKPGQPPKLLIYGASNRYIGVPDRFSGSGSGTDFTLTISSLQAEDVAVYYCAQFYSYPLTFGGGTKVEIK

>  <OD450, OD450>
0.07

$$$$
>  <binder>
PcOxP_DB02_D03 (scFv, V domains shown, scFv in periplasmic extract) VH: EVQLLESGGGLVQPGGSLRLSCAASGFTQSDFYMEWVRQAPGKGLEWVAASRNKANAYTTEYADSVKGRFTISRDNSKNTLYLQMNSLRAEDTAVYYCARDYYGYSYWYFDVWGQGTLVTVSS VL: DIVMTQSPDSLAVSLGERATINCTASESLYSSKHKVHYLAWYQQKPGQPPKLLIYGNSNRYIGVPDRFSGSGSGTDFTLTISSLQAEDVAVYYCGQFYSYPLTFGGGTKVEIK

>  <OD450, OD450>
0.08

$$$$
>  <binder>
PcOxP_DB02_D10 (scFv, V domains shown, scFv in periplasmic extract) VH: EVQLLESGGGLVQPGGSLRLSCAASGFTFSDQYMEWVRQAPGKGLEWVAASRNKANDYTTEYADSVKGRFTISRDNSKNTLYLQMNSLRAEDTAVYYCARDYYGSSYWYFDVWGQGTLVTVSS VL: DIQMTQSPSSLSASVGDRVTITCTATESLYSSKHKVHYLAWYQQKPGKAPKLLIYGASNRYTGVPSRFSGSGSGTDFTLTISSLQPEDFATYYCAQFYSYPLTFGGGTKVEIK

>  <OD450, OD450>
0.1

$$$$
>  <binder>
PcOxP_DB02_H10 (scFv, V domains shown, scFv in periplasmic extract) VH: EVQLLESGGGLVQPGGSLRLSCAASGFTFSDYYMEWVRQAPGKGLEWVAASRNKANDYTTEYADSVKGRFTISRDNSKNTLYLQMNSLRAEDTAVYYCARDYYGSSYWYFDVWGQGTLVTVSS VL: DIQMTQSPSSLSASVGDRVTITCTASESLYSSKHKVHYLAWYQQKPGKAPKLLIYGAGNRYIGVPSRFSGSGSGTDFTLTISSLQPEDFATYYCAQFYEYPLTFGGGTKVEIK

>  <OD450, OD450>
0.08

$$$$
>  <binder>
PcOxP_DB04_D10 (scFv, V domains shown, scFv in periplasmic extract) VH: EVQLLESGGGLVQPGGSLRLSCAASGFTGSDFYMEWVRQAPGKGLEWVAASRWKANDYTTEYADSVKGRFTISRDNSKNTLYLQMNSLRAEDTAVYYCARDYYGSSYWYFDVWGQGTLVTVSS VL: DIVMTQSPDSLAVSLGERATINCTASESLYSTKHKVHYLAWYQQKPGQPPKLLIYGASHRYIGVPDRFSGSGSGTDFTLTISSLQAEDVAVYYCAQFYQYPLTFGGGTKVEIK

>  <OD450, OD450>
0.07

$$$$
